meta.source: the RNAGym collection of RNA variant scans (doi:10.7554/elife.80360)

B1: CPEB3 Ribozyme (parent)
chain: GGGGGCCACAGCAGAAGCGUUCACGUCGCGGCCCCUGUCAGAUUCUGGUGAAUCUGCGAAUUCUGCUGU

# Variants of: B1
# EXPERIMENTAL PROTOCOL: self-cleavage, relative activity (ratio to wild type); higher = more cleavage; co-transcriptional
Label true (1) when self-cleavage is at or above 0.4; anything below gets false (0).

*Q* # bool: self-cleavage of G4C G11U >= 0.4
*A* false (0)

*Q* Please indicate if the recorded self-cleavage for A10U U38C meets or exceeds 0.4.
*A* true (1)

*Q* Test whether the variant U49G G50A records self-cleavage of 0.4 or higher.
*A* true (1)

*Q* Is self-cleavage for G1C A16G at or above 0.4?
*A* false (0)

*Q* Say whether G37U G50U shows self-cleavage of 0.4 or more.
*A* false (0)

*Q* Check the entry U55G G68C : does self-cleavage equal or exceed 0.4?
*A* true (1)

*Q* Does the reported self-cleavage for U21C C63U fall at or above the 0.4 mark?
*A* true (1)

*Q* Is reported self-cleavage greater than or equal to 0.4 here: C18G A59U
*A* false (0)

*Q* Quick check, self-cleavage >= 0.4? G19C G37U
*A* false (0)

*Q* Would you say G50C C57A shows self-cleavage at minimum 0.4?
*A* false (0)

*Q* Check if self-cleavage >= 0.4 (inclusive). Item: C29U C39U
*A* false (0)

*Q* # bool: self-cleavage of C6G G50U >= 0.4
*A* false (0)

*Q* Assess whether reported self-cleavage for A42G U43G sits at 0.4 or higher.
*A* true (1)

*Q* Is it the case that A51G C63U has self-cleavage reaching or exceeding 0.4?
*A* true (1)

*Q* # bool: self-cleavage of G25U A59U >= 0.4
*A* false (0)

*Q* Threshold query (self-cleavage >= 0.4) on C32G U49C
*A* true (1)
